assay: loss of swimming-algae plug formation – whole organism, Chlamydomonas reinhardtii, WT vs cilia-less mutant, absorbance, 96-well, primary screen (AID 463189); conditions: Chlamydomonas reinhardtii gravitaxis, OD600 absorbance, 2 days; at 10 µM; hits give high values;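 note: 0% = wild type cc124 cells in DMSO and 100% = ciliumless bld1 mutant cells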

[
  {
    "compound": "Cc1nc(N=Nc2ccc(C(=O)O)cc2)c(COP(=O)(O)O)c(C=O)c1O",
    "measure_unit": "%",
    "inhibition": 8.14
  },
  {
    "compound": "NC(Cc1ccc(Cl)cc1)C(=O)O (stereo unspecified)",
    "measure_unit": "%",
    "inhibition": -1.92
  },
  {
    "compound": "O=C1NC(=O)C(c2ccccc2[N+](=O)[O-])=C1Nc1ccc(O)c(Cl)c1",
    "measure_unit": "%",
    "inhibition": 1.1
  },
  {
    "compound": "O=C1c2ccccc2-c2n[nH]c3cccc1c23",
    "measure_unit": "%",
    "inhibition": 34.8
  },
  {
    "compound": "OCC1NCC(O)C(O)C1O (stereo unspecified)",
    "measure_unit": "%",
    "inhibition": -0.461
  },
  {
    "compound": "CCCC(C(=O)OCCN(CC)CC)(c1ccccc1)c1ccccc1",
    "measure_unit": "%",
    "inhibition": 4.83
  },
  {
    "compound": "CC1CC2C3CCC4=CC(=O)C=C[C@]4(C)[C@@]3(F)[C@@H](O)C[C@]2(C)[C@@]1(O)C(=O)CO (stereo partly specified)",
    "measure_unit": "%",
    "inhibition": 5.99
  },
  {
    "compound": "Ic1ccc(N2CCN(Cc3c[nH]c4ncccc34)CC2)cc1",
    "measure_unit": "%",
    "inhibition": 7.68
  },
  {
    "compound": "CN1CCc2cc(Cl)c(O)cc2[C@@H](c2ccccc2)C1",
    "measure_unit": "%",
    "inhibition": 5.1
  },
  {
    "compound": "NC[C@@H]1O[C@H](C23CC4CC(CC(C4)C2)C3)Cc2c1ccc(O)c2O",
    "measure_unit": "%",
    "inhibition": 0.204
  },
  {
    "compound": "CC(C)C(=O)c1c(C(C)C)nn2ccccc12",
    "measure_unit": "%",
    "inhibition": 52.8
  }
]

----------
Overview of reported inhibition of aggregation across a group of molecules:
experiment: reduction of polyQ htt aggregates in cells – imaging, exon1htt(103Q)mCFP cells, high-content imaging, primary screen (AID 483); details: exon1htt(103Q)mCFP cell line, aggregate imaging, at 2 µM; hits give high values;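 note: compound exposure lasted 3 days before fixation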

[
  {
    "molecule": "CN(C)S(=O)(=O)c1ccc(S(=O)(=O)Nc2ccc3c(c2)oc2ccccc23)cc1",
    "measure_unit": "%",
    "inhibition of aggregation": -3.8
  },
  {
    "molecule": "O=c1c2ccccc2nc(-c2cccc(Cl)c2)n1O",
    "measure_unit": "%",
    "inhibition of aggregation": 0.5
  },
  {
    "molecule": "CCSc1ncc(C#N)c(=O)[nH]1",
    "measure_unit": "%",
    "inhibition of aggregation": -21.7
  },
  {
    "molecule": "[O-][n+]1onc2c1CCc1nnc(-c3ccccc3)cc1-2",
    "measure_unit": "%",
    "inhibition of aggregation": 7.5
  },
  {
    "molecule": "CCn1c(=O)cc(SCC(=O)Nc2cccnc2)c2ccccc21",
    "measure_unit": "%",
    "inhibition of aggregation": 4.3
  },
  {
    "molecule": "Cc1cccc(N2CCN(C(=O)c3cc4c(=O)[nH]c5ccccc5c4n3C)CC2)c1C",
    "measure_unit": "%",
    "inhibition of aggregation": 5.3
  },
  {
    "molecule": "CC1CCN(S(=O)(=O)c2ccc(S(=O)(=O)NCC(=O)C(C)(C)C)cc2)CC1",
    "measure_unit": "%",
    "inhibition of aggregation": -10.2
  },
  {
    "molecule": "CN1C(=O)C2(NCCc3c2[nH]c2ccccc32)c2ccccc21 (stereo unspecified)",
    "measure_unit": "%",
    "inhibition of aggregation": -4.1
  },
  {
    "molecule": "Cc1ncoc1C(=O)Nc1cccc(Cl)c1C",
    "measure_unit": "%",
    "inhibition of aggregation": 52.7
  },
  {
    "molecule": "COc1ccc(-c2nc(N3CCCC3)[nH]c(=O)c2C#N)cc1",
    "measure_unit": "%",
    "inhibition of aggregation": -7.1
  },
  {
    "molecule": "COc1ccc(N2CCN(C(c3cccc(OC)c3OC)c3nnnn3C3CCCC3)CC2)cc1 (stereo unspecified)",
    "measure_unit": "%",
    "inhibition of aggregation": -7.2
  }
]

----------
experiment: reduction of polyQ htt aggregates in cells – imaging, exon1htt(103Q)mCFP cells, high-content imaging, primary screen (AID 483); conditions: exon1htt(103Q)mCFP cell line, aggregate imaging, at 2 µM; hits give high values;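 note: compound exposure lasted 3 days before fixation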
Overview of reported inhibition of aggregation across a group of compounds:
property: inhibition of aggregation (%)

[
  {
    "compound": "Cc1ccc(NCc2nnc(SCC(=O)N3CCCCC3)n2CC2CCCO2)c(C)c1 (stereo not given)",
    "property": "inhibition of aggregation",
    "assay_value": -7.9
  },
  {
    "compound": "COc1ccc(CCNS(=O)(=O)c2ccc(C(=O)NCc3ccco3)cc2)cc1OC",
    "property": "inhibition of aggregation",
    "assay_value": 7.4
  },
  {
    "compound": "CCCN(CCC)S(=O)(=O)c1ccc(C(=O)Nc2nnc(-c3cccc(OC)c3)o2)cc1",
    "property": "inhibition of aggregation",
    "assay_value": 13.6
  },
  {
    "compound": "CC(C)NCC(O)COc1ccc(CC(N)=O)cc1 (stereo not given)",
    "property": "inhibition of aggregation",
    "assay_value": -3.8
  },
  {
    "compound": "Cc1ccc2c(c1)c1c(n2CC(O)Cn2c(C)nc3ccccc32)/C(=N\\O)CCC1 (stereo not given)",
    "property": "inhibition of aggregation",
    "assay_value": -25.1
  }
]

----------
molecular target: Muscarinic acetylcholine receptor M4 (Homo sapiens); test: M4-linked GIRK flux change, two-sided – cell-based, HEK293 M4/GIRK, thallium flux, BTC-AM, M4 allosteric agonist project, primary screen (AID 625); conditions: at 10 µM, actives lie on both sides;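 note: thallium influx through GIRK channels coupled to M4 in HEK293 cells with BTC-AM dye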
Please enter met where fluorescence slope is greater than or equal to 0.005, and not met where it is lower.

[
  {
    "compound": "COc1ccc(-n2c(C)c(C(C)=O)c3cc(O)ccc32)cc1",
    "tested_on": "Muscarinic acetylcholine receptor M4 (Homo sapiens)",
    "class": "met"
  },
  {
    "compound": "Cc1cccc2cc(C#N)c(NCCNC(=O)NC3CCCCC3)nc12",
    "tested_on": "Muscarinic acetylcholine receptor M4 (Homo sapiens)",
    "class": "not met"
  },
  {
    "compound": "Cc1ccccc1-c1nc2ccccc2c(=O)n1C1CCS(=O)(=O)C1 (stereo unspecified)",
    "tested_on": "Muscarinic acetylcholine receptor M4 (Homo sapiens)",
    "class": "met"
  },
  {
    "compound": "O=C(Nc1ccc(Cl)cc1)C1CC=CCC1C(=O)OCC(F)(F)C(F)F (stereo unspecified)",
    "tested_on": "Muscarinic acetylcholine receptor M4 (Homo sapiens)",
    "class": "met"
  },
  {
    "compound": "CC(C)(C)C1CCc2onc(C(=O)Nc3cnn(Cc4ccc(F)cc4)c3)c2C1 (stereo unspecified)",
    "tested_on": "Muscarinic acetylcholine receptor M4 (Homo sapiens)",
    "class": "met"
  },
  {
    "compound": "CCCCOC(=O)Cn1c(=N)n(CCN2CCOCC2)c2ccccc21",
    "tested_on": "Muscarinic acetylcholine receptor M4 (Homo sapiens)",
    "class": "met"
  },
  {
    "compound": "COC(=O)c1[nH]c(C)c(/C(O)=C2\\C(=O)C(=O)N(CCCN3CCOCC3)C2c2ccccn2)c1C (stereo unspecified)",
    "tested_on": "Muscarinic acetylcholine receptor M4 (Homo sapiens)",
    "class": "not met"
  },
  {
    "compound": "CCCCc1c(O)nc(SCC(=O)c2ccccc2)[nH]c1=O",
    "tested_on": "Muscarinic acetylcholine receptor M4 (Homo sapiens)",
    "class": "not met"
  },
  {
    "compound": "Cc1ccc(S(=O)(=O)NC(C(=O)OCC(=O)NC2CCS(=O)(=O)C2)C(C)C)cc1 (stereo unspecified)",
    "tested_on": "Muscarinic acetylcholine receptor M4 (Homo sapiens)",
    "class": "met"
  },
  {
    "compound": "COC(=O)Nc1ccc(S(=O)(=O)N2CCN(c3ccc(F)cc3)CC2)cc1",
    "tested_on": "Muscarinic acetylcholine receptor M4 (Homo sapiens)",
    "class": "not met"
  },
  {
    "compound": "CCC1CCCCN1S(=O)(=O)c1ccc(C(=O)Nc2nnc(-c3cccs3)o2)cc1 (stereo unspecified)",
    "tested_on": "Muscarinic acetylcholine receptor M4 (Homo sapiens)",
    "class": "met"
  },
  {
    "compound": "COc1ccc(CCNC(=O)C2CCN(Cc3nc(-c4cccc(Cl)c4)oc3C)CC2)cc1OC",
    "tested_on": "Muscarinic acetylcholine receptor M4 (Homo sapiens)",
    "class": "not met"
  },
  {
    "compound": "O=C(NCc1ccc2c(c1)OCO2)c1cc2n(n1)C(C(F)(F)F)CC(c1ccc3c(c1)OCO3)N2 (stereo unspecified)",
    "tested_on": "Muscarinic acetylcholine receptor M4 (Homo sapiens)",
    "class": "met"
  },
  {
    "compound": "CCOc1ccc2c(c1)sc1nc(C(=O)OC)cc(=O)n12",
    "tested_on": "Muscarinic acetylcholine receptor M4 (Homo sapiens)",
    "class": "not met"
  },
  {
    "compound": "CN1CCCN(C(=O)c2cc(=O)[nH]c3ccccc23)c2nc3ccccc3nc21",
    "tested_on": "Muscarinic acetylcholine receptor M4 (Homo sapiens)",
    "class": "met"
  },
  {
    "compound": "COC(=O)c1ccc(CSc2nc3ccccc3c(=O)n2Cc2ccco2)o1",
    "tested_on": "Muscarinic acetylcholine receptor M4 (Homo sapiens)",
    "class": "met"
  },
  {
    "compound": "Cc1onc(-c2c(Cl)cccc2Cl)c1C(=O)NCCN1CCOCC1",
    "tested_on": "Muscarinic acetylcholine receptor M4 (Homo sapiens)",
    "class": "met"
  }
]
